Target: T1, TNFR1 (Homo sapiens, UniProt P19438)
T1 chain: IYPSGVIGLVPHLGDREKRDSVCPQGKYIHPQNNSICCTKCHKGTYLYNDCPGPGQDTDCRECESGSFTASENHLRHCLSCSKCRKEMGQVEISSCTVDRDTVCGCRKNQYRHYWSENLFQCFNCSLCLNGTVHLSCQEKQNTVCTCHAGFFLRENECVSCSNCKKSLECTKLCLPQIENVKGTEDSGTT
Test: yeast display SC50
measured_attribute: apparent Kd (screen) (nM)

E33R (designed binder) MTLQELLREEALRRAEAEAFRYALELLAEKFPRQKEYLLDLAEEIESQIRSLSGVDVEDVRKFLDKEWAWVKELLAEHPAELAEVEAARAARLAELRAEVEAKVAA	0.49
W70C (designed binder) MTLQELLREEALRRAEAEAFRYALELLAEKFPEQKEYLLDLAEEIESQIRSLSGVDVEDVRKFLDKEWACVKELLAEHPAELAEVEAARAARLAELRAEVEAKVAA	2.73
L82F (designed binder) MTLQELLREEALRRAEAEAFRYALELLAEKFPEQKEYLLDLAEEIESQIRSLSGVDVEDVRKFLDKEWAWVKELLAEHPAEFAEVEAARAARLAELRAEVEAKVAA	0.539

[1] E77W (designed binder) MTLQELLREEALRRAEAEAFRYALELLAEKFPEQKEYLLDLAEEIESQIRSLSGVDVEDVRKFLDKEWAWVKELLAWHPAELAEVEAARAARLAELRAEVEAKVAA
[2] V85Y (designed binder) MTLQELLREEALRRAEAEAFRYALELLAEKFPEQKEYLLDLAEEIESQIRSLSGVDVEDVRKFLDKEWAWVKELLAEHPAELAEYEAARAARLAELRAEVEAKVAA
[3] S53P (designed binder) MTLQELLREEALRRAEAEAFRYALELLAEKFPEQKEYLLDLAEEIESQIRSLPGVDVEDVRKFLDKEWAWVKELLAEHPAELAEVEAARAARLAELRAEVEAKVAA
[4] K62P (designed binder) MTLQELLREEALRRAEAEAFRYALELLAEKFPEQKEYLLDLAEEIESQIRSLSGVDVEDVRPFLDKEWAWVKELLAEHPAELAEVEAARAARLAELRAEVEAKVAA
Rank entries according to their apparent Kd (screen), from the largest number down. Returns: the labels listed in the requested order. 3, 4, 2, 1
(3: 13.8 nM, 4: 3 nM, 2: 0.869 nM, 1: 0.539 nM)

Data origin, for the record: paper PMC12416549
